ASSAY_PROCEDURE: Metabolic stability in rat plasma assessed as unmetabolized fraction after 10 mins
Format: ADME, cell-free
RUN_CONDITIONS: read-out: Stability
METRIC: remaining at 10 min (%)
State just the number; it will be interpreted in %.

Request: Please report the recorded remaining at 10 min for COc1c(OCC[18F])cccc1C(O)C1CCN(CCc2ccc(F)cc2)CC1 (stereo unspecified) .
Response: 32
